Reference source: patent EP4813463A2

target: TYK2-JH2 domain (Homo sapiens, UniProt P29597); construct: JAK1-JH2 domain or TYK2-JH2 domain enzyme in assay buffer; test: Binding activity test for JH2 domain of TYK2 (Tb-antibody/tracer FRET); conditions: JH2 domain enzyme; 60 min at 25°C, then 4°C overnight; read-out: TYK2 JH2 Binding IC50
Sequence (P29597 589-875 limits assumed): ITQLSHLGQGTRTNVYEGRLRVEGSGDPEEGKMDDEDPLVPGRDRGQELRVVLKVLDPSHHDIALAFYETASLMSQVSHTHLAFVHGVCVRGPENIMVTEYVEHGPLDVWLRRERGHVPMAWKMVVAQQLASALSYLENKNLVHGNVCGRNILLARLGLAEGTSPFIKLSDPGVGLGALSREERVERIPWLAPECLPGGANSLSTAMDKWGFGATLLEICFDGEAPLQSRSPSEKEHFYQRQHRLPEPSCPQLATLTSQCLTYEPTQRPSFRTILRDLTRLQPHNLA
Would you kindly list IC50 for each of these compounds?
Unit nM implied. Number only.

So what IC50 did [2H]C([2H])([2H])NC(=O)c1cnc(NC(=O)C2CC2)cc1Nc1nn(C)c2ccc([C@@H](O)C(F)(F)F)c(OC)c12 [Example 49B] get with TYK2-JH2 domain (Homo sapiens, UniProt P29597)?
0.211

So what IC50 did COC(=O)c1cnc(NC(=O)C2CC2)cc1Nc1nn(C)c2ccc([C@H](OC)C(F)(F)F)c(OC)c12 [Example 45B] get with TYK2-JH2 domain (Homo sapiens, UniProt P29597)?
0.124

So what IC50 did [2H]C([2H])([2H])NC(=O)c1cnc(NC(=O)C2(F)CC2)cc1Nc1cnn2ccc([C@H](O)C(F)(F)F)c(OC)c12 [Example 19] get with TYK2-JH2 domain (Homo sapiens, UniProt P29597)?
0.273

So what IC50 did [2H]C([2H])([2H])CC(=O)c1cnc(NC(=O)C2CC2)cc1Nc1nn(C)c2ccc(C(OC)C(F)(F)F)c(OC)c12 (single isomer, unassigned) [Example 65A] get with TYK2-JH2 domain (Homo sapiens, UniProt P29597)?
0.54

So what IC50 did COC(=O)c1cnc(NC(=O)C2CC2)cc1Nc1cnn2ccc([C@H](OC)C(F)(F)F)c(OC)c12 [Example 42] get with TYK2-JH2 domain (Homo sapiens, UniProt P29597)?
0.202

So what IC50 did COC(=O)c1cnc(NC(=O)C2CC2)cc1Nc1nn(C)c2ccc(C(OC)C3CC3)c(OC)c12 (stereo not drawn) [Example 114] get with TYK2-JH2 domain (Homo sapiens, UniProt P29597)?
0.209

---

target: TYK2-JH2 domain (Homo sapiens, UniProt P29597); construct: JAK1-JH2 domain or TYK2-JH2 domain enzyme in assay buffer; assay: Binding activity test for JH2 domain of TYK2 (Tb-antibody/tracer FRET); settings: JH2 domain enzyme; 60 min at 25°C, then 4°C overnight; read-out: TYK2 JH2 Binding IC50
pIC50: −log10 of the molar value.
Outcome label depends on pIC50 relative to 9: at/above gives rule met, below gives rule not met.

In plain terms: is recorded pIC50 at least 9 for [2H]C([2H])([2H])NC(=O)c1cnc(NC(=O)C2CC2)cc1Nc1nn(C([2H])([2H])[2H])c2ccc([C@H](OC)C(F)(F)F)c(OC)c12 [Example 153] ?
rule met

In plain terms: is recorded pIC50 at least 9 for [2H]C([2H])([2H])OC(=O)c1cnc(NC(=O)C2CC2)cc1Nc1ncn2ncc(C(OC)C(F)(F)F)c2c1OC (stereo not shown) [Example 81] ?
rule not met

In plain terms: is recorded pIC50 at least 9 for [2H]C([2H])([2H])Oc1c([C@@H](OC)C(F)(F)F)ccc2c1c(Nc1cc(NC(=O)C3CC3)ncc1C(=O)OC)nn2C [Example 120B] ?
rule met

In plain terms: is recorded pIC50 at least 9 for CONC(=O)c1cnc(NC(=O)C2CC2)cc1Nc1nn(C)c2ccc(C(OC)C(F)(F)F)c(OC)c12 (stereo not shown) [Example 73] ?
rule met

In plain terms: is recorded pIC50 at least 9 for [2H]C([2H])([2H])NC(=O)c1cnc(NC(=O)C2CC2)cc1Nc1nn(C)c2ccc(C(O)C(F)(F)F)c(OC)c12 (stereo not shown) [Example 49] ?
rule met
